Sourced from patent US20250195513A1

Listed molecules paired with reported Dmax
# subject-of-test: IRAK4 (Homo sapiens)
# Construct: endogenous in cells; host or cells: Karpas299
# Sequence (Q9NWZ3 whole entry): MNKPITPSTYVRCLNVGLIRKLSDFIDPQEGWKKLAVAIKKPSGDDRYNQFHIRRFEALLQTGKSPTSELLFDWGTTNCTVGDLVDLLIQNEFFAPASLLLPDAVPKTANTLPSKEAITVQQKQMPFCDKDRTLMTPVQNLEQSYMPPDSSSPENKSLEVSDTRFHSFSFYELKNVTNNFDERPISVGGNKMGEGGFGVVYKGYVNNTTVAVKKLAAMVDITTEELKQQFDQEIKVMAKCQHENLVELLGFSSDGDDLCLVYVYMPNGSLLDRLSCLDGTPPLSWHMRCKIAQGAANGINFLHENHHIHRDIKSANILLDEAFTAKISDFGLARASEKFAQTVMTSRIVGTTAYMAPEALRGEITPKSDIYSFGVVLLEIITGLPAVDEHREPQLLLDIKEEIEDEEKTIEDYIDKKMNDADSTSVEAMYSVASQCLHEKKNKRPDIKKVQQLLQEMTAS
# assay-explanation: IRAK4 Degradation Assay (Karpas299, HTRF/TR-FRET)
# Format: cell-based
# conditions-used: Karpas-299 cells, 24 h treatment; maximum percentage of degradation; read-out: IRAK4 in Karpas-299 (24 h) Dmax (%)
Give the value; after it, write the unit.

Take a look at these entries with their results.
molecule	recorded-value
COc1cc2nn([C@H]3CC[C@H](N4CCN(C(=O)[C@@H]5CCN(c6ccc(N7CCC(=O)NC7=O)cc6)C5)CC4)CC3)cc2cc1NC(=O)c1cccc(C(F)(F)F)n1	97%
COC[C@@H]1CN(C2CCN(c3cc(F)c([C@H]4CCC(=O)NC4=O)c(F)c3)CC2)CCN1[C@H]1CC[C@H](n2cc3cc(NC(=O)c4ccc5cc(C#N)cnn45)c(C(C)(C)O)cc3n2)CC1	98%

Which Dmax is reported with IRAK4 (Homo sapiens) for this entry: "[2H]C([2H])([2H])Oc1cc2nn([C@H]3CC[C@H](N4CCN(C(=O)C5CN(c6cc(F)c([C@H]7CCC(=O)NC7=O)c(F)c6)C5)CC4)CC3)cc2cc1NC(=O)c1cccc(C(F)(F)F)n1" ?
98%

Queued: "CC(C)c1cc(-c2nc(C(=O)Nc3cn([C@H]4CC[C@H](N5CCN(C(=O)[C@@H]6CCN(c7cc(F)c([C@H]8CCC(=O)NC8=O)c(F)c7)C6)CC5)CC4)nc3C(F)F)co2)ccn1"
95%

// query: CC(C)(O)c1cc2nn([C@H]3CC[C@H](N4CCN(c5ccc(CCC(=O)NC6CCC(=O)NC6=O)cc5)CC4)CC3)cc2cc1NC(=O)c1ccc2cc(C#N)cnn12 (some centres unmarked)
80%

Again, but for "Cc1cc(-c2nc(C(=O)Nc3cn(-c4ccc(N5CCN(C(=O)C6CN(c7ccc(N8CCC(=O)NC8=O)cc7)C6)CC5)nc4)nc3C(N)=O)co2)ccn1"
96%

And what about the molecule Cc1nc(C2CCC(=O)NC2=O)ccc1N1CCC(N2CCN([C@H]3CC[C@H](n4cc5cc(NC(=O)c6ccc7cc(C#N)cnn67)c(C(C)(C)O)cc5n4)CC3)CC2)CC1 (some centres unmarked) ?
97%

Quick one: "CC(C)(O)c1cc2nn([C@H]3CC[C@H](N4CCN(C[C@H]5C[C@H](c6cc(F)c([C@H]7CCC(=O)NC7=O)c(F)c6)C5)CC4)CC3)cc2cc1NC(=O)c1ccc2cc(C#N)cnn12"
98%

Continue with CC(C)(O)c1cc2nn([C@H]3CC[C@H](CN4CCN(C5CCN(c6ccc7c(c6)C(=O)N(C6CCC(=O)NC6=O)C7=O)CC5)CC4)CC3)cc2cc1NC(=O)c1ccc2cc(C#N)cnn12 (some centres unmarked)
96%

Would you mind doing "O=C1CC[C@H](c2c(F)cc(N3CC(C(=O)N4CCN([C@H]5CC[C@H](n6cc(NC(=O)c7coc(-c8ccnc(NCC9CC9)c8)n7)c(C(F)F)n6)CC5)C(=O)C4)C3)cc2F)C(=O)N1" as well?
97%

And for "COc1cc2nn([C@H]3CC[C@H](N4CCN(CC5CN(c6cc(F)c([C@H]7CCC(=O)NC7=O)c(F)c6)C5)CC4)CC3)cc2cc1C(=O)Nc1cnc2cccnn12" ?
98%

Now this one: CC(C)(O)c1cc2nn([C@H]3CC[C@H](N4CCN(C5CCN(c6ccc7c(c6)CN(C6CCC(=O)NC6=O)C7=O)CC5)CC4)CC3)cc2cc1NC(=O)c1ccc2cc(C#N)cnn12 (some centres unmarked)
95%
